- assayed.target: PDE1B (Homo sapiens, UniProt Q01064)
- Sequence (Q01064 whole entry): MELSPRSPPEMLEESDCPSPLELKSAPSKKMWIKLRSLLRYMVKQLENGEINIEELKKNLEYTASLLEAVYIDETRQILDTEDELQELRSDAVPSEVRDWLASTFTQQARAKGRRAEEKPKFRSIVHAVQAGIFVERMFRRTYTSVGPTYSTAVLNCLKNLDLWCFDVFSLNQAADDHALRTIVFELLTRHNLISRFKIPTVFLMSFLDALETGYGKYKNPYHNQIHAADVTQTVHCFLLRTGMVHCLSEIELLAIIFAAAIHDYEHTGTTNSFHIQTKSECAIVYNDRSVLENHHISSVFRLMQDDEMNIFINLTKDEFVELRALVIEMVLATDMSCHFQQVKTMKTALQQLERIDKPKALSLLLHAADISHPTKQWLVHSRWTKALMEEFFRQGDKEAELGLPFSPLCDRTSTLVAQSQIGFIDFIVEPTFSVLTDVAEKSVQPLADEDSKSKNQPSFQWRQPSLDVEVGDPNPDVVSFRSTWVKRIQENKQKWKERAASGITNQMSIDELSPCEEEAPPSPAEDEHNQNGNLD
- experimental.protocol: PDE1 inhibition assay (SPA, tritium labelled cAMP), PDE1B
- Format: biochemical
- measurement.setup: 15 nM tritium labelled cAMP, 1 h at room temperature
readout.kind: pIC50
Numbers only, as −log10 of the molar value.

Worked cases, answers included:
compound | recorded.number
COc1ccc2c(NC3CCOC3)ncnc2c1Cl (single isomer, unassigned) [4 Stereoisomer 2] | 7.35
COc1ccc2c(NC3CCOC3C)ncnc2c1F (single isomer, unassigned) [3 Stereoisomer 3] | 7.15
COc1ccc2c(N(C)C3(C)CCOC3)ncnc2c1F (single isomer, unassigned) [15 Stereoisomer 1] | 6.96

Please give pIC50 for each item listed below.
1. COc1ccc2c(N(C)C3(C)CCOC3)ncnc2c1Cl (single isomer, unassigned) [11 Stereoisomer 1]
2. COc1ccc2c(NC3(C)CCOC3)ncnc2c1F (single isomer, unassigned) [1 Stereoisomer 1]
3. COc1ccc2c(NC3CCOC3C)ncnc2c1F (single isomer, unassigned) [3 Stereoisomer 4]
4. COc1ccc2c(N(C)C3CCOC3C)ncnc2c1F (single isomer, unassigned) [18 Stereoisomer 2]

### Response
1. 7.19
2. 8.00
3. 6.92
4. 6.26
